Catalogue of CD112 blocking max inhibition (%) values
Target: T1, human CD112R expressed on Jurkat cells (human, UniProt Q6DKI7 1-326)
T1 construct: whole, on cells; Used for both Jurkat-CD112R OE cells and wild type Jurkat cells; which cells is said under assay; also called PVRIG; Jurkat-CD112R OE
T1 sequence (looked up): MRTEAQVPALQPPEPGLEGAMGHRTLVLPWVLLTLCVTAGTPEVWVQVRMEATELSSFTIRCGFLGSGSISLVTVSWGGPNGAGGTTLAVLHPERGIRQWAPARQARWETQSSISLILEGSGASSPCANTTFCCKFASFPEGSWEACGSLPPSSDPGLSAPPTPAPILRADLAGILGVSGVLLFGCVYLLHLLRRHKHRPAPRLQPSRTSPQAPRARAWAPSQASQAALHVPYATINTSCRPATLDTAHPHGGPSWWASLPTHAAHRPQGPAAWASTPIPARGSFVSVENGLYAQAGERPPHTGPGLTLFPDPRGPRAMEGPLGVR
Assay: flow cytometry competition on Jurkat-CD112R OE cells; competitor biotinylated his-tagged human CD112

>>> observed_measurement("Antibody 44 (antibody, V domains shown, Purified as IgG; compared with an IgG1 isotype control and detected with anti-human IgG Fc; also called antibody clone number 44; clone 44) VH: QVQLVQSGAEVKKPGSSVKVSCKASGGTFDNYYISWVRQAPGQGLEWMGGIFPIFGTANYAQKFQGRVTITADESTSTAYMELSSLRSEDTAVYYCAREVGHYSGSPYYMDVWGKGTTVTVSS VL: DIQMTQSPSTLSASVGDRVTITCRASQSINSWLAWYQQKPGKAPKLLISDASSLESGVPSRFSGSGSGTEFTLTISSLQPDDFATYYCQQVGPYLTFGGGTKVEIK")
"97.7%"

Let's switch to this binder now.
Give its CD112 blocking max inhibition (%) value. Item: Antibody 35 (antibody, V domains shown, Purified as IgG; compared with an IgG1 isotype control and detected with anti-human IgG Fc; also called antibody clone number 35; clone 35) VH: QVQLVQSGAEVKKPGSSVKVSCKASGGTFSSAAISWVRQAPGQGLEWMGNIIPIVGIANYAQKFQGRVTITADESTSTAYMELSSLRSEDTAVYYCARDTGRGYTRHFWFDPWGQGTLVTVSS VL: DIQMTQSPSSLSASVGDRVTITCRASQSISSYLNWYQQKPGKAPKLLIYAASSLQSGVPSRFSGSGSGTDFTLTISSLQPEDFATYYCQQSDILYTFGGGTKVEIK
97.4%
